Hey, just so you know, these numbers are from ChEMBL document CHEMBL5046289.

procedure-details: Clearance in Sprague-Dawley rat at 10 mg/kg, iv after 0.083 to 24 hrs by LC-MS/MS analysis
Format: ADME, organism-based
protocol-conditions: in vivo, time 0.083-24 hrs
measurement-kind: clearance (mL/min/kg)
Answers are plain numbers, in mL/min/kg.

clearance recorded for this compound, O=C(/C=C/c1cc(Cl)ccc1-n1cnnn1)N[C@@H](CC(=O)N1CCN(c2ccccc2)CC1)C(=O)Nc1ccc(C(=O)O)cc1 , is 9.22

---

tested-target: UniProt:P03951
protocol-conditions: dose 50.0 nM, time 1.0 hrs
measurement-kind: inhibition (%)
One number for each entry, in %.

Field: example entries. Status: answers known.
                            chemical_smiles  measurement_kind  reported
0  O=C(/C=C/c1cc(Cl)ccc1-n1cnnn1)N[C@@H](CC(=O)N1CCCCC1)C(=O)Nc1ccc(C(=O)O)cc1        inhibition      15.9
1  Cc1ccc(CN2CCN(C(=O)C[C@H](NC(=O)/C=C/c3cc(Cl)ccc3-n3cnnn3)C(=O)Nc3ccc(C(=O)O)cc3)CC2)cc1        inhibition      43.5

Lab note: each compound below needs its inhibition filled in.
1. O=C(/C=C/c1cc(Cl)ccc1-n1cnnn1)N[C@@H](CCC(=O)N1CCC(O)CC1)C(=O)Nc1ccc(C(=O)O)cc1
2. O=C(CN(Cc1ccccc1)C(=O)/C=C/c1cc(Cl)ccc1-n1cnnn1)Nc1ccc(C(=O)O)cc1
3. CCN1CCN(C(=O)C[C@H](NC(=O)/C=C/c2cc(Cl)ccc2-n2cnnn2)C(=O)Nc2ccc(C(=O)O)cc2)CC1
4. O=C(/C=C/c1cc(Cl)ccc1-n1cnnn1)N[C@@H](CC(=O)N1CCN(Cc2ccccc2)CC1)C(=O)Nc1ccc(C(=O)O)cc1

[20.9, 15.3, 45.5, 53.3]

---

tested-target: Coagulation factor XI (Homo sapiens)
Sequence (P03951 19-387 limits assumed): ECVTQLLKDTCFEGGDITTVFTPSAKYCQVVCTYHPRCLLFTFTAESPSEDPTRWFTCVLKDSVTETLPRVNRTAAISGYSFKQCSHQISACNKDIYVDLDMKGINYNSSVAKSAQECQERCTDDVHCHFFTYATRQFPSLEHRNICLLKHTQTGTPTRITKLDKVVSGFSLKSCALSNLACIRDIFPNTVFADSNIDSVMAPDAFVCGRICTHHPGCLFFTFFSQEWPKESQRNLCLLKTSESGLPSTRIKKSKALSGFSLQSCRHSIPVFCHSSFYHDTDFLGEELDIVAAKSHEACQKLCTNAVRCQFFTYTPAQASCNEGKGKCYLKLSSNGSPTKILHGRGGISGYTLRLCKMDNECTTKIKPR
Sequence (P03951 388-625 limits assumed): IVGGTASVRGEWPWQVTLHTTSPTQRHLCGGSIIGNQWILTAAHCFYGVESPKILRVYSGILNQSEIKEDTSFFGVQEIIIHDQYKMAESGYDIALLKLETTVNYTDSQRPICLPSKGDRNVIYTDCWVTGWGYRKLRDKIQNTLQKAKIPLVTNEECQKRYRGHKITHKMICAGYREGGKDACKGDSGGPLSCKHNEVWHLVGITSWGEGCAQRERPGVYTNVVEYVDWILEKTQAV
measurement-kind: IC50 (nM)
One number for each entry, in nM.

Field: example entries. Status: answers known.
>>> df
                            chemical_smiles                         tested_target  measurement_kind  reported
0  O=C(/C=C/c1cc(Cl)ccc1-n1cnnn1)N[C@@H](CC(=O)N1CCN(CCO)CC1)C(=O)Nc1ccc(C(=O)O)cc1  Coagulation factor XI (Homo sapiens)              IC50      11.5
1  CC(C)N1CCN(C(=O)CC[C@H](NC(=O)/C=C/c2cc(Cl)ccc2-n2cnnn2)C(=O)Nc2ccc(C(=O)O)cc2)CC1  Coagulation factor XI (Homo sapiens)              IC50      73.5
2  CCN1CCN(C(=O)C[C@H](NC(=O)/C=C/c2cc(Cl)ccc2-n2cnnn2)C(=O)Nc2ccc(C(=O)O)cc2)CC1  Coagulation factor XI (Homo sapiens)              IC50      25.5
3  O=C(/C=C/c1cc(Cl)ccc1-n1cnnn1)N[C@@H](CC(=O)N1CCN(c2ccccc2)CC1)C(=O)Nc1ccc(C(=O)O)cc1  Coagulation factor XI (Homo sapiens)              IC50      14.2

Below: the item to evaluate.
IC50 recorded for this compound, CC(C)N1CCN(C(=O)C[C@H](NC(=O)/C=C/c2cc(Cl)ccc2-n2cnnn2)C(=O)Nc2ccc(C(=O)O)cc2)CC1 , is 31.2
